assayed-system: GTPase KRas (Homo sapiens, UniProt P01116, G12C)
experiment-description: Inhibition of KRAS G12C mutant in human MIA PaCa-2 cells assessed as reduction in phosphorylated ERK1/2 level incubated for 2 hrs by MSD assay
Format: cell-based
measured-property: IC50 (nM)
Answers are plain numbers, in nM.

Sample records with IC50:
# compound Cc1ccnc(C(C)C)c1-n1c(=O)nc(N2CCN(C(=O)C=O)C[C@@H]2C)c2cc(Cl)c(-c3ccccc3F)nc21 ; its IC50 = 711

compound CCOC(=O)[C@@H]1O[C@H]1C(=O)N1CCN(c2nc(=O)n(-c3c(C)ccnc3C(C)C)c3nc(-c4ccccc4F)c(Cl)cc23)[C@@H](C)C1 , IC50 observed: 96

We now examine a further compound.
IC50 recorded for this compound, COC(=O)/C=C/C(=O)N1CCN(c2nc(=O)n(-c3c(C)ccnc3C(C)C)c3nc(-c4ccccc4F)c(Cl)cc23)[C@@H](C)C1 , is 61

----------
assayed-system: GTPase KRas (Homo sapiens, UniProt P01116, G12C)
experiment-description: Inhibition of GDP-bound KRAS G12C mutant (1 to 169 residues) (unknown origin) assessed as inhibition of SOS-mediated nucleotide exchange pretreated with KRAS for 20 hrs followed by incubation with SOS (564 to 1049 residues) and GTP for 30 mins and later incubated with GST-tagged cRAF (1 to 149 residues) for 10 mins by AlphaLISA assay
Type: single protein
Entries whose IC50 is below 30 nM take Yes; entries at or above 30 nM take No.

Take a look at these entries with their results.
Please determine if Cc1ccnc(C(C)C)c1-n1c(=O)nc(N2C[C@@H](C)N(C(=O)[C@H]3CO3)C[C@@H]2C)c2cc(Cl)c(-c3c(O)cccc3F)nc21 is below 30 nM in terms of IC50.
Yes

Strictly below 30 nM in IC50? CCOC(=O)[C@@H]1O[C@H]1C(=O)N1CCN(c2nc(=O)n(-c3c(C)ccnc3C(C)C)c3nc(-c4ccccc4F)c(Cl)cc23)[C@@H](C)C1
Yes

Hello, I'm reviewing records and need to know if IC50 of Cc1ccnc(C(C)C)c1-n1c(=O)nc(N2CCN(C(=O)[C@@H]3O[C@H]3CO)C[C@@H]2C)c2cc(Cl)c(-c3ccccc3F)nc21 is below 30 nM. Could you check?
No

Identify whether the compound COC(=O)/C=C/C(=O)N1CCN(c2nc(=O)n(-c3c(C)ccnc3C(C)C)c3nc(-c4ccccc4F)c(Cl)cc23)[C@@H](C)C1 records IC50 below 30 nM.
Yes

Does the reported IC50 of Cc1ccnc(C(C)C)c1-n1c(=O)nc(N2CCN(C(=O)C3OC3C)C[C@@H]2C)c2cc(Cl)c(-c3ccccc3F)nc21 (some centres not stated) stay below 30 nM?
No

Further cases:
For this compound, is IC50 lower than 30 nM? Cc1ccnc(C(C)C)c1-n1c(=O)nc(N2CC(NC(=O)C3CO3)C2)c2cc(Cl)c(-c3ccccc3F)nc21 (configuration not stated)
Yes

Decide: IC50 of Cc1ccnc(C(C)C)c1-n1c(=O)nc(N2CCN(C(=O)C=O)C[C@@H]2C)c2cc(Cl)c(-c3ccccc3F)nc21 strictly below 30 nM?
No

----------
Would you kindly list Activity for each of these molecules?
System: GTPase KRas (Homo sapiens), P01116 [G12D]
experiment-description: Binding affinity to GDP-bound KRAS G12D mutant (unknown origin) assessed as bound fraction at 100 uM incubated for 20 hrs by RF-MS analysis relative to control
One number for each entry, in %.

molecule Cc1ccnc(C(C)C)c1-n1c(=O)nc(N2C[C@@H](C)N(C(=O)[C@H]3CO3)C[C@@H]2C)c2cc(Cl)c(-c3c(O)cccc3F)nc21 , Activity observed: 8.1

Activity reported for this molecule Cc1ccnc(C(C)C)c1-n1c(=O)nc(N2C[C@@H](C)N(C(=O)[C@H]3CO3)C[C@@H]2C)c2cc(Cl)c(-c3c(N)cccc3F)nc21 : 15.8

Recorded Activity (molecule CCOC(=O)[C@@H]1O[C@H]1C(=O)N1CCN(c2nc(=O)n(-c3c(C)ccnc3C(C)C)c3nc(-c4ccccc4F)c(Cl)cc23)[C@@H](C)C1 ): 3.4

Now examine the next entry.
The reported Activity of the molecule Cc1ccnc(C(C)C)c1-n1c(=O)nc(N2CCN(C(=O)[C@H]3CO3)C[C@@H]2C)c2cc(Cl)c(-c3ccccc3F)nc21 was 3.4
